B1: Azoarcus group I ribozyme (parent)
chain: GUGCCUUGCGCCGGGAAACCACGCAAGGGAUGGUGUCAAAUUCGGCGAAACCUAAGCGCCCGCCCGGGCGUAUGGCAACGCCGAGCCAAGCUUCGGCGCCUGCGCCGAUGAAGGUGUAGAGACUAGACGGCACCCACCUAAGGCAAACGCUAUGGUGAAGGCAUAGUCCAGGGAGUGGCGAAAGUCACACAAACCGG

variants of: B1; test: reverse-splicing fitness (ratio to wild type); higher = more active; in vitro selection; Mg2+ level not given
Decide by reverse-splicing fitness: equal to or exceeding 0.01 means 1, less means 0.

1. C82U A111G A120C C150G C169U: 0
2. A111U C150G C169U U176G: 0
3. A111C A145C C150A C169G: 0

Does A111U A120U A145U C150U C169A U176G have a reported reverse-splicing fitness of at least 0.01?
0

Does C82G A111C A120G A145U C150A C169U U176C have a reported reverse-splicing fitness of at least 0.01?
1

Does A111C A120G A145U C150U U176A have a reported reverse-splicing fitness of at least 0.01?
1

Does A111G A120U A145U C150G U176C have a reported reverse-splicing fitness of at least 0.01?
1

Does C82U A111U A120G A145G C150G C169U have a reported reverse-splicing fitness of at least 0.01?
0
